- Assay Remarks: small-molecule binders of probe aInhba, primary screen, biochemical, small-molecule microarray, 635/667 nm fluorescence (AID 1148);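 further: score merges 667nm spot fluorescence with signal-to-noise for antibody binding to printed compounds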
- Test Conditions: higher = more signal
Using composite z-score as the sorting value, the categories are range 1: < -0.03; range 2: ≥ -0.03 and < 0.08; range 3: ≥ 0.08

Example cases with answers are listed next.
Lab note: which band did O=C1OCCC=C[C@H]2OC34C=CCN(Cc5ccccc5)C(=O)[C@H]3N(CCO)C(=O)[C@@H]4C12 (some centres undefined) land in? range 1

Which of the defined bands does the recorded composite z-score of "CC(C)(C)OC(=O)CC[C@]1(C(=O)N2CCCCC2)N=C(c2ccc(OCCCO)cc2)O[C@H]1c1ccccc1" sit within? range 2

Band of "C=CCOC(=O)[C@@H]1[C@H]2C(=O)O[C@H](c3ccccc3)[C@H](c3ccccc3)N2[C@H](c2ccc(OCCOC(=O)[C@H]3C[C@H]4C(=O)N5CCC[C@H]5C(=O)N4[C@H]3c3ccc(O)cc3)cc2)[C@@]12C(=O)Nc1ccccc12" ? range 3

Class (by measured composite z-score) for "CC(C)[Si](OCCCNS(=O)(=O)c1ccc(Br)cc1)(C(C)C)C(C)C" range 2

Lab note: which band did "CC(C)[Si]1(C(C)C)O[C@@H](c2ccccc2)c2cc(C3CC3)nc(-c3ccc(Oc4ccccc4)cc3)c21" land in? range 2

---
Class (by measured composite z-score) for "COCCOC(=O)N1C(=O)[C@@]2(c3ccccc31)[C@H](C(=O)N1CCc3cc(OC)c(OC)cc3C1)[C@H]1C(=O)O[C@H](c3ccccc3)[C@H](c3ccccc3)N1[C@@H]2c1ccccc1OCCO" range 2

Place this compound in its band: "Cc1ccc(S[C@]2(C(=O)NCCCN(C)C)CC(=O)N(Cc3ccccc3)[C@@H]2c2ccc(CO)cc2I)cc1" range 1

Any idea which band C[C@H]1C2[C@H](Cc3ccccc3)NC(=O)[C@]23C(=O)N[C@H](Cc2ccccc2)C(=O)N[C@@H](Cc2ccccc2)C(=O)NC/C=C\C/C=C/C3[C@@H]2O[C@]12C (some centres undefined) is in? range 3

Assign a category based on measured composite z-score for "CCCC[C@@H]1C[C@H]1[C@@H](NC(=O)c1ccccc1)c1ccccc1C(F)(F)F" and give only the class name. range 3

// bin(item) where item = "C=C(CCCC)C(=O)CC[C@@H](OC(C)=O)c1ccccc1OCCO" range 2

Sort into band: "C=C(CCCC)/C(=C/C[C@@H](OC(=O)c1ccncc1)c1ccc(CO)o1)c1cnc2ccccc2c1" range 3

Band for "O=C1c2ccccc2[C@](Cc2ccccc2I)(C(=O)NCc2ccccc2)[C@H](c2ccc(CO)cc2)N1Cc1ccccc1C(F)(F)F" ? range 1

Place this compound in its band: "C=C[C@H](OC)[C@@H](OC(=O)Nc1ccc(SC)cc1)c1ccc(O)c(F)c1" range 1

Sort "CCCC=C(CCC)[C@@H](NS(=O)(=O)c1ccc(-c2ccccc2)cc1)c1ccc(C(=O)OC)cc1" into one of the categories. range 1

Tag the class for "CO[C@H]1COC(=O)CC=C[C@@H](C)COC(=O)[C@@H](C)NC(=O)CC=C[C@@H]1C" range 1

Exam item: assign "[N-]=[N+]=NCc1ccccc1[C@H]1OC(c2ccc(OCCCO)cc2)=N[C@@]1(Cc1ccccc1N=[N+]=[N-])C(=O)NCc1ccccc1" to the correct category. range 3

Category of "O=C(CS)NCCCCCCNC(=O)[C@@H]1C[C@@H]2C(=O)N[C@@H](Cc3ccccc3)C(=O)N2[C@@H]1c1ccc(O)cc1" , please. range 2

Assign a bin to "C=CCN1C(=O)[C@@]2(O[C@@H](CCn3cc([C@H](O)c4ccccc4)nn3)[C@H]([Si](C)(C)c3ccc(OC)cc3)[C@H]2C)c2cc(N3CCOC3=O)ccc21" range 1
